# TEST_METHOD_NOTES: Therapeutic index in H9 lymphocytes.
# Assay type: cell-based
# MEASUREMENT_SETUP: human, read-out: Therapeutic index
EXPERIMENTAL_ENDPOINT: selectivity ratio

>>> data_value("COc1cc2ccc(=O)oc2c2c1OC(C)(C)[C@H](OC(=O)C13CCC(C)(C(=O)O1)C3(C)C)[C@@H]2OC(=O)C12CCC(C)(C(=O)O1)C2(C)C (stereo partly drawn)")
"> 9.68"
>>> data_value("Cc1cc2ccc(=O)oc2c2c1OC(C)(C)[C@H](OC(=O)C13CCC(C)(C(=O)O1)C3(C)C)[C@@H]2OC(=O)C12CCC(C)(C(=O)O1)C2(C)C (stereo partly drawn)")
218
>>> data_value("CCCc1cc(=O)oc2c3c(ccc12)OC(C)(C)[C@H](OC(=O)C12CCC(C)(C(=O)O1)C2(C)C)[C@@H]3OC(=O)C12CCC(C)(C(=O)O1)C2(C)C (stereo partly drawn)")
"> 8630"

---

# Test system: Human immunodeficiency virus 1
# TEST_METHOD_NOTES: Anti-HIV activity in H9 lymphocytes.
# Format: functional, organism-based
# MEASUREMENT_SETUP: Human immunodeficiency virus 1
pIC50: −log10 of the molar value.
EXPERIMENTAL_ENDPOINT: pIC50

>>> data_value("Cc1cc(=O)oc2c3c(ccc12)OC(C)(C)[C@H](OC(=O)Nc1cccc2ccccc12)[C@@H]3OC(=O)Nc1cccc2ccccc12")
4.01
>>> data_value("CC(=O)O[C@@H]1[C@H](OC(=O)C23CC4CC(CC(C4)C2)C3)c2c(ccc3c(C)cc(=O)oc23)OC1(C)C")
4.72
>>> data_value("CC1(C)Oc2ccc3ccc(=O)oc3c2[C@@H](OC(=O)C23CCC(C)(C(=O)O2)C3(C)C)[C@H]1OC(=O)C12CCC(C)(C(=O)O1)C2(C)C (stereo partly drawn)")
4.46
>>> data_value("Cc1cc(=O)oc2c3c(ccc12)OC(C)(C)[C@H](OC(=O)CC(C)C)[C@@H]3OC(=O)CC(C)C")
4.38
>>> data_value("Cc1cc2ccc(=O)oc2c2c1OC(C)(C)[C@H](OC(=O)C13CCC(C)(C(=O)O1)C3(C)C)[C@@H]2OC(=O)C12CCC(C)(C(=O)O1)C2(C)C (stereo partly drawn)")
4.48
>>> data_value("Cc1cc(=O)oc2c3c(ccc12)OC(C)(C)[C@H](OC(=O)C12CCC(C)(C(=O)O1)C2(C)C)[C@@H]3OC(=O)C12CC3CC(CC(C3)C1)C2 (stereo partly drawn)")
4.67
>>> data_value("CC(=O)O[C@@H]1c2c(ccc3c(C)cc(=O)oc23)OC(C)(C)[C@@H]1OC(C)=O")
3.77

---

The compounds listed here are annotated with their selectivity ratio.
# TEST_METHOD_NOTES: Therapeutic index value of the cpmpound against CEM-SS cells
# Type: cell-based
# MEASUREMENT_SETUP: human, read-out: Therapeutic index
EXPERIMENTAL_ENDPOINT: selectivity ratio

>>> data_value("COc1cc(=O)oc2c3c(ccc12)OC(C)(C)[C@H](OC(=O)C12CCC(C)(C(=O)O1)C2(C)C)[C@@H]3OC(=O)C12CCC(C)(C(=O)O1)C2(C)C (stereo not given in full)")
"> 1600"
>>> data_value("CC1(C)Oc2ccc3ccc(=O)oc3c2[C@@H](OC(=O)C23CCC(C)(C(=O)O2)C3(C)C)[C@H]1OC(=O)C12CCC(C)(C(=O)O1)C2(C)C (stereo not given in full)")
100
>>> data_value("COc1cc2ccc3c(c2oc1=O)[C@@H](OC(=O)C12CCC(C)(C(=O)O1)C2(C)C)[C@@H](OC(=O)C12CCC(C)(C(=O)O1)C2(C)C)C(C)(C)O3 (stereo not given in full)")
34
>>> data_value("CCCc1cc(=O)oc2c3c(ccc12)OC(C)(C)[C@H](OC(=O)C12CCC(C)(C(=O)O1)C2(C)C)[C@@H]3OC(=O)C12CCC(C)(C(=O)O1)C2(C)C (stereo not given in full)")
"> 262"
>>> data_value("COc1cc2c(c3oc(=O)ccc13)[C@@H](OC(=O)C13CCC(C)(C(=O)O1)C3(C)C)[C@@H](OC(=O)C13CCC(C)(C(=O)O1)C3(C)C)C(C)(C)O2 (stereo not given in full)")
"> 1560"
>>> data_value("Cc1cc2ccc(=O)oc2c2c1OC(C)(C)[C@H](OC(=O)C13CCC(C)(C(=O)O1)C3(C)C)[C@@H]2OC(=O)C12CCC(C)(C(=O)O1)C2(C)C (stereo not given in full)")
"> 532"
>>> data_value("Cc1cc2c(c3oc(=O)ccc13)[C@@H](OC(=O)C13CCC(C)(C(=O)O1)C3(C)C)[C@@H](OC(=O)C13CCC(C)(C(=O)O1)C3(C)C)C(C)(C)O2 (stereo not given in full)")
"> 3150"
>>> data_value("CC(C)c1cc(=O)oc2c3c(ccc12)OC(C)(C)[C@H](OC(=O)C12CCC(C)(C(=O)O1)C2(C)C)[C@@H]3OC(=O)C12CCC(C)(C(=O)O1)C2(C)C (stereo not given in full)")
"> 219"
>>> data_value("Cc1cc(=O)oc2c3c(ccc12)OC(C)(C)[C@H](OC(=O)C12CCC(C)(C(=O)O1)C2(C)C)[C@@H]3OC(=O)C12CCC(C)(C(=O)O1)C2(C)C (stereo in doubt; 8)")
"> 3150"
>>> data_value("Cc1cc2ccc3c(c2oc1=O)[C@@H](OC(=O)C12CCC(C)(C(=O)O1)C2(C)C)[C@@H](OC(=O)C12CCC(C)(C(=O)O1)C2(C)C)C(C)(C)O3 (stereo not given in full)")
"> 58.7"

---

# TEST_METHOD_NOTES: Therapeutic index in H9 lymphocytes.
# Type: cell-based
# MEASUREMENT_SETUP: human, read-out: Therapeutic index
The compounds listed here are annotated with their selectivity ratio.
EXPERIMENTAL_ENDPOINT: selectivity ratio

>>> data_value("CC1(C)Oc2ccc3ccc(=O)oc3c2[C@@H](OC(=O)C23CCC(C)(C(=O)O2)C3(C)C)[C@H]1OC(=O)C12CCC(C)(C(=O)O1)C2(C)C (stereo partly drawn)")
137000
>>> data_value("COc1cc2ccc3c(c2oc1=O)[C@@H](OC(=O)C12CCC(C)(C(=O)O1)C2(C)C)[C@@H](OC(=O)C12CCC(C)(C(=O)O1)C2(C)C)C(C)(C)O3 (stereo partly drawn)")
"> 64300"
>>> data_value("CC(=O)O[C@@H]1[C@H](OC(=O)C23CC4CC(CC(C4)C2)C3)c2c(ccc3c(C)cc(=O)oc23)OC1(C)C")
16.7
>>> data_value("CC(C)c1cc(=O)oc2c3c(ccc12)OC(C)(C)[C@H](OC(=O)C12CCC(C)(C(=O)O1)C2(C)C)[C@@H]3OC(=O)C12CCC(C)(C(=O)O1)C2(C)C (stereo partly drawn)")
"> 4790"
>>> data_value("COc1cc(=O)oc2c3c(ccc12)OC(C)(C)[C@H](OC(=O)C12CCC(C)(C(=O)O1)C2(C)C)[C@@H]3OC(=O)C12CCC(C)(C(=O)O1)C2(C)C (stereo partly drawn)")
"> 51200"
>>> data_value("Cc1cc(=O)oc2c3c(ccc12)OC(C)(C)[C@H](OC(=O)C12CCC(C)(C(=O)O1)C2(C)C)[C@@H]3OC(=O)C12CC3CC(CC(C3)C1)C2 (stereo partly drawn)")
35.5
>>> data_value("CC1(C)Oc2ccc3c(-c4ccccc4)cc(=O)oc3c2[C@@H](OC(=O)C23CCC(C)(C(=O)O2)C3(C)C)[C@H]1OC(=O)C12CCC(C)(C(=O)O1)C2(C)C (stereo partly drawn)")
"> 1190"
>>> data_value("COc1cc2c(c3oc(=O)ccc13)[C@@H](OC(=O)C13CCC(C)(C(=O)O1)C3(C)C)[C@@H](OC(=O)C13CCC(C)(C(=O)O1)C3(C)C)C(C)(C)O2 (stereo partly drawn)")
"> 797000"
>>> data_value("Cc1cc2ccc3c(c2oc1=O)[C@@H](OC(=O)C12CCC(C)(C(=O)O1)C2(C)C)[C@@H](OC(=O)C12CCC(C)(C(=O)O1)C2(C)C)C(C)(C)O3 (stereo partly drawn)")
"> 2.15e+06"
>>> data_value("Cc1cc2c(c3oc(=O)ccc13)[C@@H](OC(=O)C13CCC(C)(C(=O)O1)C3(C)C)[C@@H](OC(=O)C13CCC(C)(C(=O)O1)C3(C)C)C(C)(C)O2 (stereo partly drawn)")
"> 3.97e+08"
>>> data_value("CC(=O)O[C@@H]1[C@H](OC(=O)C23CCC(C)(C(=O)O2)C3(C)C)c2c(ccc3c(C)cc(=O)oc23)OC1(C)C (stereo partly drawn)")
2230
>>> data_value("CC1(C)Oc2ccc3c(C(F)(F)F)cc(=O)oc3c2[C@@H](OC(=O)C23CCC(C)(C(=O)O2)C3(C)C)[C@H]1OC(=O)C12CCC(C)(C(=O)O1)C2(C)C (stereo partly drawn)")
"> 80.1"
>>> data_value("CC(=O)O[C@@H]1c2c(ccc3c(C)cc(=O)oc23)OC(C)(C)[C@@H]1OC(C)=O")
2.06
